assay.text: chemical genetic growth profiling, strain panel (AID 1159580);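 note: tested at 20 µM; growth read once vehicle control cultures reached saturation at 30 °C; 1 = growth at the plate median or of vehicle wells; lower values mean less growth of the strain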
assay.setup: S. cerevisiae deletion strains, growth OD, locus YDR392W, strain spt3, hits give low values
About 2,000 (36%) of roughly 5,500 compounds were called active. Not shown: some 18% with an inconclusive outcome. This is one part of the list.
assay.metric: normalized growth

Past entries and their recorded results:
[[record]]
compound = "CC(=O)OC1CCC23CC1(C)CCC2C(C)(C)CC3OC(C)=O (stereo not given)"
assay_metric = "normalized growth"
recorded_value = "0.528 (active)"

[[record]]
compound = "COc1ccccc1OCC(O)COC(N)=O (stereo not given)"
assay_metric = "normalized growth"
recorded_value = "0.918 (inactive)"

[[record]]
compound = "CCCCCC/C=C\\CCCCCCCc1cccc(O)c1C(=O)O"
assay_metric = "normalized growth"
recorded_value = "0.813 (inactive)"

[[record]]
compound = "O=C1NS(=O)(=O)c2ccccc21"
assay_metric = "normalized growth"
recorded_value = "0.957 (inactive)"

[[record]]
compound = "NNCc1ccccc1"
assay_metric = "normalized growth"
recorded_value = "1 (inactive)"


QUERY: What normalized growth value was documented for this compound, `O=C(/C=C/c1ccc(O)cc1)c1ccc(O)cc1O` ?
RESULT: 0.892 (inactive)

QUERY: Name the recorded normalized growth for `O=C(O)CCC(=O)OC[C@@H](NC(=O)C(Cl)Cl)[C@H](O)c1ccc([N+](=O)[O-])cc1` .
RESULT: 0.914 (inactive)

QUERY: So what does the record say about normalized growth for `O=C(/C=C/c1ccccc1)c1ccc(O)cc1O` ?
RESULT: 0.0975 (active)

QUERY: What value of normalized growth has been reported for the following compound? `CC(=O)OCC1=C(C(=O)O)N2C(=O)[C@@H](NC(=O)CSc3ccncc3)[C@H]2SC1`
RESULT: 0.957 (inactive)

QUERY: Recorded normalized growth of `O=C1C=C(O)c2ccccc2C1=O` , please.
RESULT: 0.796 (inactive)

QUERY: Which measured normalized growth value corresponds to `CC(C)[C@@H]1CC[C@@H](C)C[C@H]1OC(=O)c1ccccc1` ?
RESULT: 0.997 (inactive)

QUERY: Recorded normalized growth of `O=C(N[C@@H](CO)[C@H](O)c1ccc([N+](=O)[O-])cc1)C(Cl)Cl` , please.
RESULT: 0.981 (inactive)

QUERY: Return reported normalized growth; argument: Cc1cc2nc3c(=O)[nH]c(=O)nc-3n(CC(O)C(O)C(O)CO)c2cc1C (stereo not given)
RESULT: 0.91 (inactive)

QUERY: What measured normalized growth goes with `O=C(O)CC[N+](=O)[O-]` ?
RESULT: 1.02 (inactive)

QUERY: Quick one: normalized growth for `COc1ccc(CC(=O)c2ccc(O)cc2O)cc1` ?
RESULT: 0.455 (active)

QUERY: For the compound `O=C(/C=C/c1ccc(O)cc1)c1ccccc1O` , what normalized growth is on record?
RESULT: 0.103 (active)

QUERY: Look at this compound and give its reported normalized growth. `COc1ccc([C@@H](C)C(=O)c2ccc(O)cc2O)cc1`
RESULT: 0.749 (inactive)

QUERY: Dear colleague, I am looking for the recorded normalized growth of the following compound: `CC(C)N1C(=O)c2ccccc2NS1(=O)=O`
RESULT: 1.02 (inactive)

QUERY: Param item = CC1(C)CC23C(=O)CCC(O)C2(C)CCC13 (stereo not given) ; retrieve measured normalized growth.
RESULT: 0.939 (inactive)

QUERY: Record request: normalized growth value, item CC(=O)OC1CCC2(O)CC1(C)CCC1C2CC1(C)C (stereo not given)
RESULT: 0.955 (inactive)

QUERY: Record request: normalized growth value, item `COc1ccc(NS(=O)(=O)c2ccc(N)cc2)nn1`
RESULT: 0.881 (inactive)

QUERY: What value of measured normalized growth is listed for `O=C1C=CC(=O)c2ccccc21` ?
RESULT: 0.109 (active)

QUERY: GET /values?readout=normalized growth&item= CC1CC(OC(=O)c2ccccc2O)CC(C)(C)C1 (stereo not given)
RESULT: 0.89 (inactive)

QUERY: Find the recorded normalized growth belonging to `CNC(C)(C)Cc1ccccc1` and report it.
RESULT: 1.01 (inactive)

QUERY: Query: normalized growth; subject: C[C@H]1C(=O)CCC2[C@]3(C)CC[C@@]4(C)C5CC(C)(C)CC[C@]5(C)CC[C@]4(C)C3CC[C@@]21C (stereo not given in full)
RESULT: 0.934 (inactive)
